Values compiled from ChEMBL document CHEMBL3507680.

# method description: Human HepG2 cell viability assay in 384 well format
# Type: toxicity, cell-based
# Parameters: dose 125 nL, time 70.5 hour; concentration not given beside the values
# assay context: HepG2 cells, read-out: Inhibition

compound: Cn1ccnc1CN1CCC(c2nc3ccccc3n2C)CC1
cytotoxicity at 70.5 h / %: 28.7
//
compound: Cc1cc(NCCc2nnc(N)s2)nc(-c2ccccc2)n1
cytotoxicity at 70.5 h / %: -2.76
//
compound: c1ncc2c(n1)CN(c1ncnc3[nH]ccc13)CC2
cytotoxicity at 70.5 h / %: -4.47
//
compound: CCC(CC)C(CNC(=O)Nc1ccc(OC)cc1)N1CCOCC1 (stereo not drawn)
cytotoxicity at 70.5 h / %: -12.2
//
compound: O=C(CN1C(=O)CCC1=O)N1CCOC2(CCOCC2)C1
cytotoxicity at 70.5 h / %: 29.6
//
compound: COc1cccc(C2CCN2C(=O)c2cc(C(C)C)on2)c1 (stereo not drawn)
cytotoxicity at 70.5 h / %: -0.704
//
compound: Cc1cc(CNC(=O)N2CCN(c3ccccc3)CC2)no1
cytotoxicity at 70.5 h / %: -3.89
//
compound: CC(C)(C)NC(=O)CN1CCN(C(=O)Nc2ccc(F)cc2F)CC1
cytotoxicity at 70.5 h / %: 9.46
//
compound: Cc1cccc(C(=O)N2C[C@@H](C)[C@@]3(CCN(c4ccsc4)C3=O)C2)n1
cytotoxicity at 70.5 h / %: -16.4
//
compound: CCc1nc(C)c(C(=O)NCCNC(=O)Cc2cccc(F)c2)s1
cytotoxicity at 70.5 h / %: -6.24
//
compound: O=C(c1ccco1)N1CCOCC2(C1)CN(c1cccnc1)C(=O)CO2 (stereo not drawn)
cytotoxicity at 70.5 h / %: -3.1
//
compound: CCOCC1COCCC12CCN(C(=O)C1=CCCC1)CC2 (stereo not drawn)
cytotoxicity at 70.5 h / %: -5.05
//
compound: Cc1nc(CN2C(=O)CCC23CCN(c2ncccn2)CC3)cs1
cytotoxicity at 70.5 h / %: -8.07
//
compound: O=C(c1cc(C2CC2)nc2onc(-c3ccccc3)c12)N1CC[C@H](O)C1
cytotoxicity at 70.5 h / %: -4.91
//
compound: CCC(C(=O)NC1(CN2CCOCC2)CCCC1)n1cccn1 (stereo not drawn)
cytotoxicity at 70.5 h / %: -2.56
//
compound: Cc1cnc(-c2nc(NC3CCCC3)ncc2-c2onc(C)c2C)cn1
cytotoxicity at 70.5 h / %: -4.47
//
compound: NC(=O)CC1CCN(Cc2ccccc2OCC(F)(F)F)CC1
cytotoxicity at 70.5 h / %: -8.22
//
compound: COc1cc2c(cc1OC)S(=O)(=O)N(Cc1cc(C)on1)C2=O
cytotoxicity at 70.5 h / %: -4.33

====

The entries below come with measured cytotoxicity at 70.5 h values attached.
# method description: Human HepG2 cell viability assay in 384 well format
# Type: toxicity, cell-based
# Parameters: dose 125 nL, time 70.5 hour; concentration not given beside the values
# assay context: HepG2 cells, read-out: Inhibition

compound: COC(=O)c1ccc(Cn2cnc(C#N)n2)cc1
cytotoxicity at 70.5 h (%): -12

compound: CC(C)N1CCN(CCn2cnc3c(F)cccc3c2=O)CC1
cytotoxicity at 70.5 h (%): -2.82

compound: CN(C)CC1(O)CCN(S(=O)(=O)c2ccc(Cl)cc2)C1 (centres undefined)
cytotoxicity at 70.5 h (%): 3.29

compound: CC(C)COC(=O)N1CCCN(C(=O)c2ccnc(N(C)C)c2)CC1
cytotoxicity at 70.5 h (%): 1.08

compound: Cc1cncc(C2CCCN2CC(N)=O)n1 (centres undefined)
cytotoxicity at 70.5 h (%): -2.96

compound: N#Cc1c2n(c3c(=O)[nH]cnc13)CCCCC2
cytotoxicity at 70.5 h (%): 2.85

compound: Cc1cnn(Cc2ccc(NC(=O)N3CCCC3)cc2)c1
cytotoxicity at 70.5 h (%): -3.9

compound: CC(=O)NCCNc1nccc(CCC(F)(F)F)n1
cytotoxicity at 70.5 h (%): -10.3

compound: Cc1nc(N(C)C)nc(NCCc2ccccn2)c1C
cytotoxicity at 70.5 h (%): -9.09

compound: N#Cc1c[nH]c(C(=O)N(Cc2ccc(O)cc2)CC2CC2)c1
cytotoxicity at 70.5 h (%): -2.25

compound: CC(C)NC(=O)N1Cc2nccn2CC(CN2CCCC2)C1 (centres undefined)
cytotoxicity at 70.5 h (%): -6.64

compound: Cc1cc(-c2ccccc2Cl)nc(N)n1
cytotoxicity at 70.5 h (%): -8.36

compound: Cc1nnc2n1CCN(CCOc1ccc(C(C)(C)C)cc1)C2
cytotoxicity at 70.5 h (%): -4.66

compound: CCOc1ccc(NC(=O)N2CCOC(C(N)=O)C2)cc1C (centres undefined)
cytotoxicity at 70.5 h (%): 1.77
